# condition.summary: in isopentyl acetate, 283.15 K
measure.name: solubility (mole fraction)

{"entry.smiles": "O=C1OC(=O)[C@H]2[C@@H]1[C@H]1C=C[C@@H]2C1", "measured": 0.0504}

###

# condition.summary: in ethyl acetate, 303.15 K

{"entry.smiles": "O=C1OC(=O)[C@H]2[C@@H]1[C@H]1C=C[C@@H]2C1", "solubility (mole fraction)": 0.154}

###

# condition.summary: in ethanol, 318.15 K
measure.name: solubility (mole fraction)

{"entry.smiles": "O=C1OC(=O)[C@H]2[C@@H]1[C@H]1C=C[C@@H]2C1", "measured": 0.0321}

###

# condition.summary: in n-butyl acetate, 313.15 K

{"entry.smiles": "O=C1OC(=O)[C@H]2[C@@H]1[C@H]1C=C[C@@H]2C1", "solubility (mole fraction)": 0.145}

###

# condition.summary: in DMF, 298.15 K

{"entry.smiles": "O=C1OC(=O)[C@H]2[C@@H]1[C@H]1C=C[C@@H]2C1", "solubility (mole fraction)": 0.288}

###

# condition.summary: in isopropyl acetate, 313.15 K
measure.name: solubility (mole fraction)

{"entry.smiles": "O=C1OC(=O)[C@H]2[C@@H]1[C@H]1C=C[C@@H]2C1", "measured": 0.152}

###

# condition.summary: in n-pentyl acetate, 323.15 K

{"entry.smiles": "O=C1OC(=O)[C@H]2[C@@H]1[C@H]1C=C[C@@H]2C1", "solubility (mole fraction)": 0.165}

###

# condition.summary: in n-propyl acetate, 293.15 K

{"entry.smiles": "O=C1OC(=O)[C@H]2[C@@H]1[C@H]1C=C[C@@H]2C1", "solubility (mole fraction)": 0.0981}

###

# condition.summary: in n-hexyl acetate, 278.15 K

{"entry.smiles": "O=C1OC(=O)[C@H]2[C@@H]1[C@H]1C=C[C@@H]2C1", "solubility (mole fraction)": 0.0377}

###

# condition.summary: in 1,4-dioxane, 318.15 K

{"entry.smiles": "O=C1OC(=O)[C@H]2[C@@H]1[C@H]1C=C[C@@H]2C1", "solubility (mole fraction)": 0.334}

###

# condition.summary: in n-butyl acetate, 323.15 K

{"entry.smiles": "O=C1OC(=O)[C@H]2[C@@H]1[C@H]1C=C[C@@H]2C1", "solubility (mole fraction)": 0.189}

###

# condition.summary: in ethyl acetate, 283.15 K
measure.name: solubility (mole fraction)

{"entry.smiles": "O=C1OC(=O)[C@H]2[C@@H]1[C@H]1C=C[C@@H]2C1", "measure.name": "solubility (mole fraction)", "measured": 0.0849}

###

# condition.summary: in NMP, 323.15 K

{"entry.smiles": "O=C1OC(=O)[C@H]2[C@@H]1[C@H]1C=C[C@@H]2C1", "solubility (mole fraction)": 0.448}

###

# condition.summary: in n-hexyl acetate, 313.15 K
measure.name: solubility (mole fraction)

{"entry.smiles": "O=C1OC(=O)[C@H]2[C@@H]1[C@H]1C=C[C@@H]2C1", "measured": 0.11}

###

# condition.summary: in isopropyl acetate, 298.15 K

{"entry.smiles": "O=C1OC(=O)[C@H]2[C@@H]1[C@H]1C=C[C@@H]2C1", "solubility (mole fraction)": 0.102}

###

# condition.summary: in octyl acetate, 318.15 K
measure.name: solubility (mole fraction)

{"entry.smiles": "O=C1OC(=O)[C@H]2[C@@H]1[C@H]1C=C[C@@H]2C1", "measure.name": "solubility (mole fraction)", "measured": 0.1}

###

# condition.summary: in n-butyl acetate, 298.15 K

{"entry.smiles": "O=C1OC(=O)[C@H]2[C@@H]1[C@H]1C=C[C@@H]2C1", "solubility (mole fraction)": 0.0969}

###

# condition.summary: in methyl acetate, 308.15 K

{"entry.smiles": "O=C1OC(=O)[C@H]2[C@@H]1[C@H]1C=C[C@@H]2C1", "solubility (mole fraction)": 0.214}

###

# condition.summary: in NMP, 318.15 K
measure.name: solubility (mole fraction)

{"entry.smiles": "O=C1OC(=O)[C@H]2[C@@H]1[C@H]1C=C[C@@H]2C1", "measured": 0.421}

###

# condition.summary: in n-hexyl acetate, 323.15 K

{"entry.smiles": "O=C1OC(=O)[C@H]2[C@@H]1[C@H]1C=C[C@@H]2C1", "solubility (mole fraction)": 0.144}

###

# condition.summary: in octyl acetate, 293.15 K
measure.name: solubility (mole fraction)

{"entry.smiles": "O=C1OC(=O)[C@H]2[C@@H]1[C@H]1C=C[C@@H]2C1", "measured": 0.0496}

###

# condition.summary: in DMF, 278.15 K
measure.name: solubility (mole fraction)

{"entry.smiles": "O=C1OC(=O)[C@H]2[C@@H]1[C@H]1C=C[C@@H]2C1", "measured": 0.209}

###

# condition.summary: in methyl acetate, 313.15 K

{"entry.smiles": "O=C1OC(=O)[C@H]2[C@@H]1[C@H]1C=C[C@@H]2C1", "solubility (mole fraction)": 0.24}

###

# condition.summary: in n-hexyl acetate, 293.15 K

{"entry.smiles": "O=C1OC(=O)[C@H]2[C@@H]1[C@H]1C=C[C@@H]2C1", "solubility (mole fraction)": 0.0614}

###

# condition.summary: in acetone, 288.15 K

{"entry.smiles": "O=C1OC(=O)[C@H]2[C@@H]1[C@H]1C=C[C@@H]2C1", "solubility (mole fraction)": 0.162}

###

# condition.summary: in ethyl acetate, 313.15 K
measure.name: solubility (mole fraction)

{"entry.smiles": "O=C1OC(=O)[C@H]2[C@@H]1[C@H]1C=C[C@@H]2C1", "measured": 0.201}

###

# condition.summary: in n-propyl acetate, 278.15 K

{"entry.smiles": "O=C1OC(=O)[C@H]2[C@@H]1[C@H]1C=C[C@@H]2C1", "solubility (mole fraction)": 0.0616}

###

# condition.summary: in methyl acetate, 293.15 K

{"entry.smiles": "O=C1OC(=O)[C@H]2[C@@H]1[C@H]1C=C[C@@H]2C1", "solubility (mole fraction)": 0.145}

###

# condition.summary: in isopropyl acetate, 318.15 K
measure.name: solubility (mole fraction)

{"entry.smiles": "O=C1OC(=O)[C@H]2[C@@H]1[C@H]1C=C[C@@H]2C1", "measured": 0.172}

###

# condition.summary: in NMP, 313.15 K

{"entry.smiles": "O=C1OC(=O)[C@H]2[C@@H]1[C@H]1C=C[C@@H]2C1", "solubility (mole fraction)": 0.392}

###

# condition.summary: in n-butyl acetate, 318.15 K
measure.name: solubility (mole fraction)

{"entry.smiles": "O=C1OC(=O)[C@H]2[C@@H]1[C@H]1C=C[C@@H]2C1", "measure.name": "solubility (mole fraction)", "measured": 0.165}

###

# condition.summary: in DMF, 283.15 K
measure.name: solubility (mole fraction)

{"entry.smiles": "O=C1OC(=O)[C@H]2[C@@H]1[C@H]1C=C[C@@H]2C1", "measured": 0.23}

###

# condition.summary: in 1,4-dioxane, 298.15 K
measure.name: solubility (mole fraction)

{"entry.smiles": "O=C1OC(=O)[C@H]2[C@@H]1[C@H]1C=C[C@@H]2C1", "measured": 0.221}

###

# condition.summary: in DMF, 313.15 K
measure.name: solubility (mole fraction)

{"entry.smiles": "O=C1OC(=O)[C@H]2[C@@H]1[C@H]1C=C[C@@H]2C1", "measure.name": "solubility (mole fraction)", "measured": 0.361}

###

# condition.summary: in ethanol, 303.15 K
measure.name: solubility (mole fraction)

{"entry.smiles": "O=C1OC(=O)[C@H]2[C@@H]1[C@H]1C=C[C@@H]2C1", "measured": 0.0155}

###

# condition.summary: in methyl acetate, 318.15 K
measure.name: solubility (mole fraction)

{"entry.smiles": "O=C1OC(=O)[C@H]2[C@@H]1[C@H]1C=C[C@@H]2C1", "measured": 0.269}

###

# condition.summary: in acetone, 303.15 K
measure.name: solubility (mole fraction)

{"entry.smiles": "O=C1OC(=O)[C@H]2[C@@H]1[C@H]1C=C[C@@H]2C1", "measure.name": "solubility (mole fraction)", "measured": 0.223}

###

# condition.summary: in n-hexyl acetate, 303.15 K
measure.name: solubility (mole fraction)

{"entry.smiles": "O=C1OC(=O)[C@H]2[C@@H]1[C@H]1C=C[C@@H]2C1", "measured": 0.0828}

###

# condition.summary: in isopropyl acetate, 308.15 K

{"entry.smiles": "O=C1OC(=O)[C@H]2[C@@H]1[C@H]1C=C[C@@H]2C1", "solubility (mole fraction)": 0.133}

###

# condition.summary: in 1,4-dioxane, 293.15 K

{"entry.smiles": "O=C1OC(=O)[C@H]2[C@@H]1[C@H]1C=C[C@@H]2C1", "solubility (mole fraction)": 0.199}

###

# condition.summary: in ethanol, 323.15 K
measure.name: solubility (mole fraction)

{"entry.smiles": "O=C1OC(=O)[C@H]2[C@@H]1[C@H]1C=C[C@@H]2C1", "measure.name": "solubility (mole fraction)", "measured": 0.0404}
